# Tested on: 786-0 renal
# assayOverview: NCI tumour cell line growth inhibition, 48 h
testReadout: TGI

Determine its reported TGI: COc1ccccc1-c1c(C)nn2c(NCc3ccccn3)cc(C)nc12 > 50 µM

Determine its reported TGI: Nc1nc(OCc2ccccc2)nc2[nH]ncc12 44.4 µM

Determine its reported TGI: O=C(O)CCC1CCc2cccc3occ1c23 (stereo not drawn) > 100 µM

Determine its reported TGI: COc1ccc(/C=C(\NC(=O)c2ccccc2)C(=O)NN(C)c2ccnc3cc(Cl)ccc23)cc1OC 79.2 µM

Determine its reported TGI: COc1ccc(-c2ccc(/C=N/n3c(COc4ccc(Cl)cc4)n[nH]c3=S)o2)c([N+](=O)[O-])c1 44.7 µM

Determine its reported TGI: Cc1cc(C2(c3cc(C)c(O)c(C(=O)O)c3)OS(=O)(=O)c3ccccc32)cc(C(=O)O)c1O > 100 µM

Determine its reported TGI: Nc1ccc(S(=O)(=O)c2ccc(NC(=O)c3cccnc3)cc2)cc1 > 100 µM

Determine its reported TGI: Nc1nc(Nc2cccc(F)c2)nc2ccccc12 33.6 µM

Determine its reported TGI: COc1ccc(/C=C2\CCCC3=C2NC(C)=NC3c2ccc(OC)c(OC)c2)cc1OC (stereo not drawn) > 100 µM

Determine its reported TGI: CC1=NN(C(=O)c2ccc(Cl)cc2)C(=O)/C1=C/c1cccc([N+](=O)[O-])c1 > 100 µM

Determine its reported TGI: C=C(C)[C@@H]1CC[C@@]2(C)[C@H]1[C@H]1CCC3[C@@]4(C)CC[C@H](O)C(C)(C)[C@@H]4CC[C@@]3(C)[C@]1(C)C[C@@H]2O (stereo partly drawn) > 100 µM

Determine its reported TGI: CC(CCc1ccc2c(c1)c(=N)c1ccc(N)cc1n2O)CC(C)(C)C (stereo not drawn) 2.82 µM

Determine its reported TGI: C/C(=N\NC(N)=O)C(CN(C)C)C(c1ccccc1)c1c(O)c2ccccc2oc1=O (stereo not drawn) > 100 µM

Determine its reported TGI: O=C1C=CC(=O)c2c(O)c(N[C@@H](Cc3ccccc3)C(=O)OCc3ccccc3)c(Cl)c(O)c21 > 10 µM

Determine its reported TGI: C=C[C@]1(C)C=C2C(=O)[C@@]3(O)OC[C@@]4(CCCC(C)(C)C43O)C2(O)C(O)C1 (stereo partly drawn) 5.51 µM

Determine its reported TGI: N=c1oc2ccc(Cl)cc2cc1C(=O)Nc1ccccc1 > 100 µM

Determine its reported TGI: Cc1c2ccncc2c(C)c2c1[nH]c1ccc(OC(C)(C)C)cc12 2.96 µM

Determine its reported TGI: FC(F)(F)c1ccc2nc(Nc3ccc(Cl)c(Cl)c3)c(-c3ccccc3)nc2c1 > 100 µM

Determine its reported TGI: CCSc1nc(COC(=O)NC)c(COC(=O)NC)n1C > 100 µM

Determine its reported TGI: CCN1C(=O)N(CC)C2C1NN=c1s/c(=C3\C(=O)N(C)c4ccccc43)c(=O)n12 (stereo not drawn) > 100 µM

Determine its reported TGI: c1ccc2c(c1)CCN2CCc1c[nH]c2ccccc12 > 10 µM

Determine its reported TGI: Nc1nnc(-c2ccco2)c(-c2ccco2)n1 > 100 µM

Determine its reported TGI: O=[N+]([O-])c1ccc(N=NN2CCCC2)cc1 > 100 µM

Determine its reported TGI: CC(=O)c1cccc(NCn2nnc3ccccc32)c1 > 100 µM

Determine its reported TGI: CC(=O)Nc1ccc(N2C(=O)/C(=C\c3cccc(Oc4ccccc4)c3)SC2c2ccccc2)cc1 (stereo not drawn) > 100 µM

Determine its reported TGI: O=[N+]([O-])c1nccn1CC1OC(n2ccnc2[N+](=O)[O-])C(O)C(O)C1O (stereo not drawn) > 100 µM

Determine its reported TGI: Clc1ncnc2c1nc(C#Cc1ccccc1)n2Cc1ccccc1 > 100 µM

Determine its reported TGI: NC(N)=NC(N)=Nc1c(F)c(F)c(F)c(F)c1F > 100 µM

Determine its reported TGI: C[C@H](CSC(=O)c1ccccc1)C(=O)N1c2ccccc2C[C@H]1C(=O)O > 10 µM

Determine its reported TGI: O=C1C(=O)N(C2CCCCC2)C(=S)N1C1CCCCC1 > 100 µM

Determine its reported TGI: CC1CC[C@@]2(OC1)OC1C[C@H]3[C@@H]4CC[C@H]5CC(OC6OC(CO)C(OC7OC(CO)C(O)C(O)C7O)C(O)C6O)CCC5(C)[C@H]4CCC3(C)C1[C@@H]2C (stereo partly drawn) 15.6 µM

Determine its reported TGI: O=C1C(=O)N(C2C3CC4CC(C3)CC2C4)C(=O)C(=O)C1c1nc2ccccc2o1 (stereo not drawn) > 100 µM

Determine its reported TGI: Cc1cccc(C)c1NC(=O)CCCC(=O)C1CCC/C1=N\NC(=O)C(=O)NN (stereo not drawn) > 100 µM

Determine its reported TGI: Fc1ccc(Nc2nccc(-c3c(-c4ccc(C(F)(F)F)cc4)nn4ncccc34)n2)cc1F > 25 µM

Determine its reported TGI: CCOc1ccc(NC(=O)CC2SC(N)=NC2=O)cc1 (stereo not drawn) > 100 µM

Determine its reported TGI: CCOC(=O)c1cnn(-c2ccnc3c(C(F)(F)F)cccc23)c1N > 100 µM

Determine its reported TGI: Cc1ccc(-c2n[nH]c(=O)[nH]2)cc1 > 100 µM

Determine its reported TGI: NCc1ccc(-n2c(-c3nonc3N)nc3cnccc32)cc1 > 25 µM

Determine its reported TGI: [O-]c1on[n+]2c1c(Nc1ccc(Cl)cc1)nc1ccccc12 > 100 µM

Determine its reported TGI: O=C(NN1C(=O)CSC1c1ccc(Cl)cc1)c1[nH]c2ccc(F)cc2c1-c1ccccc1 (stereo not drawn) 3.6 µM

Determine its reported TGI: Cc1cc(NS(=O)(=O)c2ccc(Nc3c4ccccc4nc4ccc(C(=O)Nc5ccc(S(=O)(=O)N=C(N)N)cc5)cc34)cc2)no1 > 100 µM

Determine its reported TGI: CCCCCCCC(=O)N/N=C/c1ccc(Sc2nccn2C)c([N+](=O)[O-])c1 32.4 µM

Determine its reported TGI: Oc1cc(Cl)ccc1Oc1ccc(Cl)cc1Cl 6.61 µM
